B1: Azoarcus group I ribozyme (parent)
chain: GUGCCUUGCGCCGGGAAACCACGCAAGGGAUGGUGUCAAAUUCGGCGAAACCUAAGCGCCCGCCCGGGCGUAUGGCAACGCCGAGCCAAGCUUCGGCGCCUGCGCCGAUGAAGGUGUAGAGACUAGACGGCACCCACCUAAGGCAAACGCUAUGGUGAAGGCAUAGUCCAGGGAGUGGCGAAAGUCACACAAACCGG

- Variants of: B1
- assay overview: reverse-splicing fitness (ratio to wild type); higher = more active; in vitro selection; Mg2+ level not given
Each entry below carries its recorded reverse-splicing fitness.

variant: C82A A111C A145C C150U U176A
reverse-splicing fitness: 0.0236
--
variant: C82U A120C A145G C150U U176C
reverse-splicing fitness: 0.0637
--
variant: C82U A111G A145C C169G
reverse-splicing fitness: 0.0078
--
variant: C82U A120G A145C C150G U176C
reverse-splicing fitness: 0.00608
--
variant: C82U A145C C150A C169U U176G
reverse-splicing fitness: 0.00503
--
variant: C82U A111U A120U U176A
reverse-splicing fitness: 0.00769
--
variant: C82G A120U A145U C169A U176C
reverse-splicing fitness: 0.00205
--
variant: C82G A120C A145G C150A
reverse-splicing fitness: 0.0297
--
variant: A111C A120U A145U C169G U176A
reverse-splicing fitness: 0.00434
--
variant: C82A A111G A120G C150U C169U U176C
reverse-splicing fitness: 0.0179
--
variant: C82U A120G A145C C150A C169A U176C
reverse-splicing fitness: 0.0049
--
variant: A120C A145U C150G C169G U176A
reverse-splicing fitness: 0.00633
--
variant: C82U A111G A120C C150G U176A
reverse-splicing fitness: 0.00392
--
variant: A111U A120G A145G C150A
reverse-splicing fitness: 0.0285
--
variant: C82U A111C A120U A145U U176G
reverse-splicing fitness: 0.00361
--
variant: A111G C150A C169G U176A
reverse-splicing fitness: 0.0252
--
variant: C82G A111C A120C A145G C150U C169G U176C
reverse-splicing fitness: 0.0162
--
variant: C82A A111U C150U C169U
reverse-splicing fitness: 0.0124
--
variant: A111C A145G C169G U176G
reverse-splicing fitness: 0.00716
--
variant: C82G A111U A120G C169G
reverse-splicing fitness: 0.014
--
variant: C82U A111U A120G A145U C150A C169G
reverse-splicing fitness: 0.00728
--
variant: C82A A111C C150U C169G U176C
reverse-splicing fitness: 0.0175
--
variant: C82G A120U A145U C150U U176A
reverse-splicing fitness: 0.0449
--
variant: C82G A111C A120G C150U C169A U176G
reverse-splicing fitness: 0.00607
--
variant: C82A A111C A120C A145C C150U C169G U176C
reverse-splicing fitness: 0.0178
--
variant: C82G A111C A120G A145C C150U C169A U176G
reverse-splicing fitness: 0.00557
--
variant: C82G A111U A120U C150G C169U U176A
reverse-splicing fitness: 0.00329
--
variant: C82G A145G C150A U176C
reverse-splicing fitness: 0.0688
--
variant: A120U C169G U176A
reverse-splicing fitness: 0.0354
--
variant: A111C A120U A145G C150G C169U
reverse-splicing fitness: 0.0135
--
variant: C82U A111U A120U A145U C150A C169U U176G
reverse-splicing fitness: 0.00195
--
variant: C82A A111U A120C A145C C169G U176G
reverse-splicing fitness: 0.00816
--
variant: C82G A111C A145G C150G C169U U176C
reverse-splicing fitness: 0.0116
--
variant: C82G A111C A120C C150A C169G
reverse-splicing fitness: 0.00905
--
variant: C82G A111U A120U A145G C150U C169G U176C
reverse-splicing fitness: 0.00575
--
variant: C82G A111G A120C C150G C169A U176G
reverse-splicing fitness: 0.00813
--
variant: A111G A120U A145U C150G C169G U176G
reverse-splicing fitness: 0.00203
--
variant: A120U A145G C150G C169U
reverse-splicing fitness: 0.0537
--
variant: C82G A120C A145U C169U U176G
reverse-splicing fitness: 0.00344
--
variant: A111G A120U A145U C150U C169U U176G
reverse-splicing fitness: 0.00321
--
variant: A111U A120U A145U C169A U176A
reverse-splicing fitness: 0.00253
--
variant: C82G A111U A145G U176C
reverse-splicing fitness: 0.244
--
variant: A120C C150G C169U
reverse-splicing fitness: 0.0809
--
variant: C82U A111U A120G C150G C169A U176A
reverse-splicing fitness: 0.00906
--
variant: C82A A111G A120U A145G C169U
reverse-splicing fitness: 0.00421
--
variant: C82G A111G A145U C150A C169U U176A
reverse-splicing fitness: 0.0141
